The entries below are paired with their reported Activity.
Target: Vitamin D3 receptor (Homo sapiens) (UniProt P11473)
Sequence (P11473 whole entry): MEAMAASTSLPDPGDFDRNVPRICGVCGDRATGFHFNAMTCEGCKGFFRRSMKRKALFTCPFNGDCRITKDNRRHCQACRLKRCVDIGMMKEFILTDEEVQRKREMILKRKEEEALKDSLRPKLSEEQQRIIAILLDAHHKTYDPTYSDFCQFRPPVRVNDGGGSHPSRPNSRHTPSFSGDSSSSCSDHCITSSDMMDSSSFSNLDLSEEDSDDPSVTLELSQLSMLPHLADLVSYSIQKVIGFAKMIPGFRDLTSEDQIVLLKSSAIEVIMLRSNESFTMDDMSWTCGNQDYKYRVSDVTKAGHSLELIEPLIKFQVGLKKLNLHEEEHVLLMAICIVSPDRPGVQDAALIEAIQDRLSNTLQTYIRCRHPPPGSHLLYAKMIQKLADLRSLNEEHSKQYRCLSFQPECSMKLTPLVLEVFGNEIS
Assay: Antagonist activity against 1-alpha,25-dihydroxy vitamin D3-induced HL60 cell differentiation by NBT reduction method relative to TEI-9647
Format: functional, cell-based
Set-up: scale not given: the % may be the effect or the level left
Conditions: HL-60
Quick reminder: number only, in %, skip the unit.

Before answering, review these 2 worked examples.
>>> print(df.to_string())
                    structure_smiles_string  unit_string  endpoint_value
0  C=C1/C(=C\C=C2/CCC[C@]3(C)[C@@H]([C@H](C)C[C@H]4OC(=O)C(=C)[C@H]4CC)CC[C@@H]23)C[C@@H](O)[C@H](C)[C@@H]1O            %              74
1  C=C1/C(=C\C=C2/CCC[C@]3(C)[C@@H]([C@H](C)C[C@@H]4OC(=O)C(=C)[C@@H]4C)CC[C@@H]23)C[C@@H](O)[C@H](CCCO)[C@@H]1O            %             517

Could you now consider this next compound?
input: I would be grateful if you could share the reported Activity for "C=C1/C(=C\C=C2/CCC[C@]3(C)[C@@H]([C@H](C)C[C@H]4OC(=O)C(=C)[C@@H]4CC)CC[C@@H]23)C[C@@H](O)[C@H](OCCCO)[C@@H]1O" .
output: 25
